pIC50: −log10 of the molar value.
# pIC50 against IRAK4 (Homo sapiens (Human), UniProt Q9NWZ3), merged from multiple literature sources

In the examples that follow, each entry is paired with its recorded pIC50.
structure_smiles=N[C@H](c1cccc(-c2ccc3cnn(-c4cncc(CO)n4)c3c2)n1)[C@H]1C[C@@H](O)C1 metric=pIC50 test_result="≥ 7.00"
structure_smiles=CNC(=O)c1cc(Nc2nc(OC3CCOCC3)c3c(ccn3-c3cnn(C)c3)n2)cs1 metric=pIC50 test_result="≥ 7.00"

Query string: Name the recorded pIC50 for Cn1cc(-c2cccc(-c3ncc(-c4cnn(C)c4)c(N[C@H]4CC[C@H](NS(C)(=O)=O)CC4)n3)c2)cn1 .
Result string: > 7.00

---

Compiled record: IC50 values for IRAK4 (Homo sapiens (Human), UniProt Q9NWZ3) across several sources.
Response body: numeric value in nM, unit text excluded.

compound=CC(C)Nc1c(C(=O)NC[C@@H](F)C(C)(C)O)cnc2sc(-c3cn[nH]c3)cc12 units=nM test_result=2.4

Query string: Look at this compound and give its reported IC50. CCOC(=O)c1nc(-c2cnc(Nc3ccc4ncsc4c3)cc2NC(C)C)sc1C
Result string: 961

Query string: Given the compound CC(CCF)Nc1cc(Nc2nc3ccnn3cc2F)ncc1C(=O)NC[C@@H](F)C(C)(C)O (stereo partly shown) , what is its reported IC50?
Result string: 4.8

---

Collected literature values of IC50 measured for IRAK4 (Homo sapiens (Human), UniProt Q9NWZ3).

Field: example entries. Status: answers known.
compound=C[C@@H](O)CNC(=O)C[C@H]1CCc2sc3ncnc(O[C@H]4CC[C@H](N(C)C)CC4)c3c21 subject_of_test="IRAK4 (Homo sapiens (Human), UniProt Q9NWZ3)" metric=IC50 test_result="5 to 20 µM"
compound=CC(C)(O)[C@H](F)CNC(=O)c1cnc(Nc2ccc3ncsc3c2)cc1Nc1ccc(C(=O)NCCO)cc1 subject_of_test="IRAK4 (Homo sapiens (Human), UniProt Q9NWZ3)" metric=IC50 test_result="0.0049 µM"
compound="Cn1cc(-c2cccc(-c3ncc(-c4cnn(C)c4)c(NCC4CCCOC4)n3)c2)cn1 (stereo not drawn)" subject_of_test="IRAK4 (Homo sapiens (Human), UniProt Q9NWZ3)" metric=IC50 test_result="< 0.1 µM"
compound=COC(=O)CCCc1cn(-c2ccccc2)c(NC(=O)c2cccc(-c3cn[nH]c3)c2)n1 subject_of_test="IRAK4 (Homo sapiens (Human), UniProt Q9NWZ3)" metric=IC50 test_result="< 0.05 µM"
compound=[2H]C([2H])([2H])c1nc2c(N[C@H]3CC[C@H](N4CCOCC4)CC3)nc(Nc3cnn(C)c3)nc2s1 subject_of_test="IRAK4 (Homo sapiens (Human), UniProt Q9NWZ3)" metric=IC50 test_result="≤ 1 µM"

Let's switch to this compound now.
Query string: # value lookup — system IRAK4 (Homo sapiens (Human), UniProt Q9NWZ3), readout IC50, item Cn1cc(Nc2nc(N[C@H]3CC[C@H](N4CCOCC4)CC3)c3nc(C(C)(C)C)sc3n2)cn1
Result string: 1 to 5 µM

---

Literature compilation of IC50 measurements on IRAK4 (Homo sapiens (Human), UniProt Q9NWZ3).
Record the value in nM, omitting the unit from your answer.

Solved cases (2 shown):
structure_smiles=CCOC(=O)N[C@H]1CC[C@H](n2cc(-c3cnc(-n4ncc5cc(C#N)cnc54)cc3NC(C)C)nn2)CC1 test_result=1
structure_smiles=Clc1cncc(-c2ccc3ncnc(N[C@H]4CC[C@H](N5CCOCC5)CC4)c3c2)c1 test_result=11

Next molecule, IC50 to be filled in.
Query string: Hi! What's the reported IC50 for O=C(NCCC(F)F)c1cnc2ccc(-c3cn[nH]c3)cc2c1NCC(F)F on IRAK4 (Homo sapiens (Human), UniProt Q9NWZ3)?
Result string: 22.9

---

Across several publications, the following pIC50 results were reported for IRAK4 (Homo sapiens (Human)).
pIC50: −log10 of the molar value.

Answered cases to consult:
molecule=Cn1cc(-c2cccc(-c3ncc(-c4cnn(C)c4)c(N4CCNCC4)n3)c2)cn1 subject_of_test="IRAK4 (Homo sapiens (Human))" test_result="6.00 to 7.00"
molecule=O=C(Nc1cn2cc(C3CCOCC3)nc2cc1C(=O)NC1CC1)c1cccc(C(F)(F)F)n1 subject_of_test="IRAK4 (Homo sapiens (Human))" test_result="7.30 to 8.00"
molecule=C[C@H](N)c1cccc(-c2cc(-n3ccc(C(F)(F)F)n3)c3cnn(-c4cccc(CO)n4)c3c2)n1 subject_of_test="IRAK4 (Homo sapiens (Human))" test_result="> 7.00"
molecule=NC(=O)C[C@H]1CCc2sc3ncnc(O[C@H]4CC[C@H](N5CCC(F)(F)CC5)CC4)c3c21 subject_of_test="IRAK4 (Homo sapiens (Human))" test_result="> 5.30"
molecule="N#Cc1ccc2ncnc(N[C@H]3CC[C@H](N4CCN(CCOc5ccc6c(c5)C(=O)N(C5CCC(=O)NC5=O)C6=O)CC4)CC3)c2c1 (stereo partly shown)" subject_of_test="IRAK4 (Homo sapiens (Human))" test_result="6.00 to 6.52"
molecule=COC(=O)c1cc(-c2cncc(N)c2)cc2c1cnn2-c1cccc(C#N)n1 subject_of_test="IRAK4 (Homo sapiens (Human))" test_result="> 7.00"

As a next step, examine the molecule that follows.
Query string: Need pIC50, item C#CCOC[C@@H]1CCc2sc3ncnc(O[C@H]4CC[C@H](N(C)C)CC4)c3c21
Result string: > 5.30

---

// cross-study collection: IC50 for IRAK4 (Homo sapiens (Human))

molecule=N#CCc1ccc2ncnc(N[C@H]3CC[C@H](N4CCC5(CC4)COC5)CC3)c2c1 test_result="≤ 5000 nM"
molecule=Cn1cc(-c2cccc(C(=O)Nc3nc(CCCCCCN4CCCCC4)cn3-c3ccccc3)c2)cn1 test_result="< 50 nM"
molecule="Cc1cccc(-n2ncc3c(-c4nccs4)cc(-c4cccc(C(C)N)n4)cc32)n1 (stereo not shown)" test_result="< 100 nM"

We now examine a further molecule.
Query string: Return IC50 measured with IRAK4 (Homo sapiens (Human)) given this molecule: CC1(C)OC(=O)c2ccc(Nc3ncc(C(=O)NCc4ccccc4)c(N[C@H](CO)c4ccccc4)n3)cc21
Result string: 250 to 1000 nM

---

Field pIC50: reported value for UniProt Q9NWZ3; entries drawn from several documents.
pIC50: −log10 of the molar value.

Example cases with answers are listed next.
compound="Cc1cccc(-n2ncc3c(-c4ncco4)cc(-c4cccc(C(C)N)n4)cc32)n1 (stereo not shown)" test_result="> 7.00"
compound="NC(=O)C1CCc2sc3ncnc(N[C@H]4CC[C@H](N5CCOCC5)CC4)c3c2C1 (stereo partly shown)" test_result="> 5.30"
compound="N#Cc1ccc2ncnc(N[C@H]3CC[C@H](N4CCN(S(=O)(=O)CCOCCOc5ccc6c(c5)C(=O)N(C5CCC(=O)NC5=O)C6=O)CC4)CC3)c2c1 (stereo partly shown)" test_result="≤ 6.00"

Query string: Recorded pIC50 for Cc1cccc(-n2ncc3ccc(-c4cc(N)cnc4O)cc32)n1 with UniProt Q9NWZ3, please?
Result string: 5.00 to 6.00
